Molecular target: human IP6K2 (Homo sapiens, UniProt Q9UHH9)
Construct: human IP6K2 (1-426) gene; GST; made in house; host or cells: Sf-9 insect cells
Sequence (Q9UHH9 1-426): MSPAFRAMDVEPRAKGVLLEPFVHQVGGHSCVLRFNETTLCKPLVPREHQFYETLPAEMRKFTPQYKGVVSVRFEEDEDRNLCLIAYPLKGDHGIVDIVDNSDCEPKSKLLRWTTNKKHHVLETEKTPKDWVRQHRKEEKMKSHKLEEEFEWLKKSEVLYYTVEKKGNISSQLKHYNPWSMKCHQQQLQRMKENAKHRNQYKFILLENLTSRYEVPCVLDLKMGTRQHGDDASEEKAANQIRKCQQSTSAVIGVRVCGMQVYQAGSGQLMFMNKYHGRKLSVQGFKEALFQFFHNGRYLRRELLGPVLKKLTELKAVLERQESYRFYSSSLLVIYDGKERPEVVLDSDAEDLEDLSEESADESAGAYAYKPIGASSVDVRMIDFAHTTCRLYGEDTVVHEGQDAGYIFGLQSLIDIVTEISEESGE
Assay: IP6K enzyme inhibitory assay (ADP-Glo Kinase Assay), human IP6K2
Assay type: biochemical
Conditions: compound concentration 0.1 μM; read-out: ADP-Glo method inhibitory rate (%) human IP6K2
Property measured: inhibition at 0.1 µM (%)

Worked cases, answers included:
O=C(O)c1ccc2c(n1)[C@]1(CC[C@@H](Oc3ncc(C4CC4)cc3C(F)(F)F)CC1)C(=O)N2: 95
O=C(O)c1ccc2c(n1)[C@]1(CC[C@@H](Oc3ccccc3Cl)CC1)C(=O)N2: 47
O=C(O)c1ccc2c(n1)[C@]1(CC[C@H](Oc3ccc(Cl)cc3C(F)(F)F)CC1)C(=O)N2: 99

I = Cc1cccnc1O[C@H]1CC[C@@]2(CC1)C(=O)Nc1ccc(C(=O)O)cc12
II = Cc1cc(C)nc(O[C@H]2CC[C@@]3(CC2)C(=O)Nc2ccc(C(=O)O)cc23)n1
Exercise: compare I and II ; which one has the greater inhibition at 0.1 µM? API: response body contains the label of the selected item.
I
(I: 91%, II: 47%)

====

biological target: human IP6K3 (Homo sapiens, UniProt Q96PC2); construct: human IP6K3 (1-410) gene; made in house; host or cells: BL21 (DE3) Escherichia coli; test: IP6K enzyme inhibitory assay (ADP-Glo Kinase Assay), human IP6K3; format: biochemical; details: compound concentration 0.1 μM; read-out: ADP-Glo method inhibitory rate (%) human IP6K3
Sequence (Q96PC2 whole entry): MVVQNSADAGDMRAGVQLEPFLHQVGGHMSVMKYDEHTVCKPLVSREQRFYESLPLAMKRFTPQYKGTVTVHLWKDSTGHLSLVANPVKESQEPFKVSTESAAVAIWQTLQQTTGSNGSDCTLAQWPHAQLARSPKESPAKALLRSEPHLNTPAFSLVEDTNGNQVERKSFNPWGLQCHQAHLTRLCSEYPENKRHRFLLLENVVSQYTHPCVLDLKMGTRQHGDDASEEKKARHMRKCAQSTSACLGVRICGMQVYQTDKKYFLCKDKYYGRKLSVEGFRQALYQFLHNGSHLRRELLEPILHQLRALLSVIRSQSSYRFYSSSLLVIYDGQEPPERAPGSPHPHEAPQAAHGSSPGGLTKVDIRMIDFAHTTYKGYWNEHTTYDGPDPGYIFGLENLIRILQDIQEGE
Property measured: inhibition at 0.1 µM (%)

O=C(O)c1ccc2c(c1)[C@]1(CC[C@H](Oc3ccc(Cl)cc3)CC1)C(=O)N2 [Example 108]: 99
Cc1ccc(O[C@H]2CC[C@@]3(CC2)C(=O)Nc2ccc(C(=O)O)cc23)c(F)c1 [Example 54]: 101
O=C(O)c1ccc2c(c1)[C@]1(CC[C@@H](Oc3cnc4c(c3)CCCO4)CC1)C(=O)N2 [Example 37]: 82
O=C(O)c1ccc2c(c1)[C@]1(CC[C@@H](Oc3ccc(F)cc3)CC1)C(=O)N2 [Example 2]: 100

====

molecular target: human IP6K3 (Homo sapiens, UniProt Q96PC2); construct: human IP6K3 (1-410) gene; made in house; host or cells: BL21 (DE3) Escherichia coli; assay: IP6K enzyme inhibitory assay (ADP-Glo Kinase Assay), human IP6K3; format: biochemical; conditions: compound concentration 0.1 μM; read-out: ADP-Glo method inhibitory rate (%) human IP6K3
Property measured: inhibition at 0.1 µM (%)

Below: 3 molecules and their reported inhibition at 0.1 µM.
O=C(O)c1ccc2c(c1)[C@]1(CC[C@@H](Oc3ccc(C(F)(F)F)cc3)CC1)C(=O)N2 [Example 10]: 102
O=C(O)c1ccc2c(c1)[C@]1(CC[C@@H](Oc3cc(F)cc(Cl)c3)CC1)C(=O)N2 [Example 64]: 94
O=C(O)c1ccc2c(c1)[C@]1(CC[C@@H](Oc3ccccc3C(F)(F)F)CC1)C(=O)N2 [Example 74]: 92

A = Cc1ccc(C(F)(F)F)c(O[C@H]2CC[C@@]3(CC2)C(=O)Nc2ccc(C(=O)O)nc23)n1 [Example 18]
B = Cc1cc(O[C@H]2CC[C@@]3(CC2)C(=O)Nc2ccc(C(=O)O)cc23)nc(C)n1 [Example 40]
Returns: the argument ( A or B ) having the larger inhibition at 0.1 µM. I would appreciate it if you answered with the label of your choice.
A
